- Tested on: Vcap cells
- Experimental Details: CTG cell proliferation assay on Vcap cells (compounds alone or in combination, 5 days)
- Format: cell-based
- Condition Notes: tested compound alone, 1 μM
Could you mark each record 1 (yes) if its Survival rate of Vcap cells falls strictly under 80%, and 0 (no) if it equals or exceeds it?

• [2H]C1(N2Cc3c(N)cc(F)cc3C2=O)CCC(=O)NC1=O (stereo not shown) = 1 (yes)
• CC(=O)Nc1ccc(OC[C@](C)(O)C(=O)Nc2ccc([N+](=O)[O-])c(C(F)(F)F)c2)cc1 [Andarine, reference compound] = 0 (no)
• CC(O)c1cc(C(=O)N[C@@H](C)Cn2ccc(-c3ccc(C#N)c(Cl)c3)n2)[nH]n1 (stereo partly shown) [ODM-201, reference compound] = 1 (yes)
• Nc1cc(F)cc2c1CN([C@@H]1CCC(=O)NC1=O)C2=O = 0 (no)
• C[C@]12CC[C@H](O)CC1=CC[C@@H]1[C@@H]2CC[C@]2(C)C(n3cnc4ccccc43)=CC[C@@H]12 [Galeterone, reference compound] = 1 (yes)
